# TARGET_SYSTEM: CRBN and Helios (IKZF2) (Homo sapiens, UniProt Q96SW2+Q9UKS7)
# Construct: His (N); Strep (N)
# Sequence (Q96SW2 whole entry): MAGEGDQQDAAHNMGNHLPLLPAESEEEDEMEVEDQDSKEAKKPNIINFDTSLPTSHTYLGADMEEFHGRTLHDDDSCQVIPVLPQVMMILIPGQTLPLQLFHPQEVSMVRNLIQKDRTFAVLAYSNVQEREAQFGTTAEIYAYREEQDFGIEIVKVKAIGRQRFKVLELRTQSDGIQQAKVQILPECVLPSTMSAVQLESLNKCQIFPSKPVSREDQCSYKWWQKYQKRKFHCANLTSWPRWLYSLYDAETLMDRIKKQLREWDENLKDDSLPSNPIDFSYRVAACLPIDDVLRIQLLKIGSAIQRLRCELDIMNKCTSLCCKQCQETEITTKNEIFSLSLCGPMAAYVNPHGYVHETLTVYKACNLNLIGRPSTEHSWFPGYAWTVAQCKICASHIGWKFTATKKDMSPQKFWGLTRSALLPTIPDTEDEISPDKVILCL
# Sequence (Q9UKS7 whole entry): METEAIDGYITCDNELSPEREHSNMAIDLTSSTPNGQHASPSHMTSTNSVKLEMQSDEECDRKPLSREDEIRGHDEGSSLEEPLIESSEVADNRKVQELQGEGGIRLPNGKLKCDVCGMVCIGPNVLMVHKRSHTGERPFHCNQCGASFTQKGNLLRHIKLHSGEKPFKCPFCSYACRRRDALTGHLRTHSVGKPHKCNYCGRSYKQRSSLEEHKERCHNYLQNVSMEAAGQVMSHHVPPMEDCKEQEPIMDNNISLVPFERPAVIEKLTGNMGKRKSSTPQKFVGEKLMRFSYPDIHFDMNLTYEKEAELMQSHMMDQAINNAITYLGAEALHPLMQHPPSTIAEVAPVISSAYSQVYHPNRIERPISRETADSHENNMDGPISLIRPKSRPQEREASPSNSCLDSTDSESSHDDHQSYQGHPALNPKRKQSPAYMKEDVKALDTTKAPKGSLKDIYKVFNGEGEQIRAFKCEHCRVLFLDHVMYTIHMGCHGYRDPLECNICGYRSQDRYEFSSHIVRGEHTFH
# ASSAY_NAME: TR-FRET dimerization assay (CRBN-IKZF2 ternary complex formation)
# Type: binding
# EXPERIMENTAL_PARAMETERS: compound concentration 6.6667E−05; n=1
# Protocol: A focused library of imide analogs was synthesized and assessed for their ability to induce dimerization between CRBN and Helios in a time-resolved fluorescence energy transfer (TR-FRET) assay (FIG. 1A). Prior to TR-FRET measurements being conducted, the reactions were incubated for 15 min at rt. […] Data from single measurements (n=1), each calculated as an average of at least three technical replicates per well per experiment are presented in Table 1. […]
QUANTITY_NAME: TR-FRET-IKZF2 (Normalized to CC-885)
Reply briefly: the number, and no unit.

# MOLECULE, TR-FRET-IKZF2 (Normalized to CC-885)
data = [
    ("Cc1ccc(NC(=O)NC(C)(C)c2cccc(NC3=CC(=O)N(C4CCC(=O)NC4=O)C3=O)c2)cc1Cl (centres unmarked)", 2.037),
]

Ask: Tell me its TR-FRET-IKZF2 (Normalized to CC-885) given Cc1ccc(NC(=O)NCc2cccc(NC3=CC(=O)N(C4CCC(=O)NC4=O)C3=O)c2)cc1C (centres unmarked) as the entry.
Reply: 1.184

Ask: Consider the molecule Cc1ccc(CNC(=O)Cc2cccc(NC3=CC(=O)N(C4CCC(=O)NC4=O)C3=O)c2)cc1Cl (centres unmarked) and give its recorded TR-FRET-IKZF2 (Normalized to CC-885).
Reply: 1.234

Ask: Fill in TR-FRET-IKZF2 (Normalized to CC-885) for record O=C1CCC(N2C(=O)C=C(Nc3cccc(CNC(=O)Nc4ccccc4)c3)C2=O)C(=O)N1 (centres unmarked)
Reply: 0.817

Ask: Find the measured TR-FRET-IKZF2 (Normalized to CC-885) of Cc1ccc(CNC(=O)CCc2cccc(NC3=CC(=O)N(C4CCC(=O)NC4=O)C3=O)c2)cc1Cl (centres unmarked) and report it.
Reply: 1.521

Ask: Dear colleague, please send me the reported TR-FRET-IKZF2 (Normalized to CC-885) for Cc1ccc(NC(=O)Oc2cccc(NC3=CC(=O)N(C4CCC(=O)NC4=O)C3=O)c2)cc1Cl (centres unmarked) when you can.
Reply: 0.037

Ask: Could you please provide reported TR-FRET-IKZF2 (Normalized to CC-885) for O=C1CCC(N2C(=O)C=C(Nc3ccc4cc[nH]c4c3)C2=O)C(=O)N1 (centres unmarked) ? Thanks!
Reply: 0.620

Ask: For the molecule O=C1CCC(N2C(=O)C=C(Nc3ccc(-n4ccnc4)cc3)C2=O)C(=O)N1 (centres unmarked) , give its measured TR-FRET-IKZF2 (Normalized to CC-885) value.
Reply: 0.347

* * *

TR-FRET-IKZF2 (Normalized to CC-885) by entry:
# TARGET_SYSTEM: CRBN and Helios (IKZF2) (Homo sapiens, UniProt Q96SW2+Q9UKS7)
# Construct: His (N); Strep (N)
# ASSAY_NAME: TR-FRET dimerization assay (CRBN-IKZF2 ternary complex formation)
# Format: binding
# EXPERIMENTAL_PARAMETERS: compound concentration 6.6667E−05; n=1
# answer = number (no unit)

Known TR-FRET-IKZF2 (Normalized to CC-885) results, listed for orientation:
# MOLECULE, TR-FRET-IKZF2 (Normalized to CC-885)
records = [
    ("Cc1ccc(NC(=O)N[C@H](C)c2cccc(NC3=CC(=O)N(C4CCC(=O)NC4=O)C3=O)c2)cc1Cl (some centres unmarked)", 1.531),
    ("Cc1ccc(NC(=O)NCCc2cccc(NC3=CC(=O)N(C4CCC(=O)NC4=O)C3=O)c2)cc1C(F)(F)F (centres unmarked)", 1.762),
    ("O=C1CCC(N2C(=O)C=C(Nc3ccc(Cc4ccccc4)cc3)C2=O)C(=O)N1 (centres unmarked)", 0.271),
    ("CCC(NC(=O)Nc1ccc(C)c(Cl)c1)c1cccc(NC2=CC(=O)N(C3CCC(=O)NC3=O)C2=O)c1 (centres unmarked)", 2.010),
    ("O=C(Cc1ccc(Cl)c(Cl)c1)NCc1cccc(NC2=CC(=O)N(C3CCC(=O)NC3=O)C2=O)c1 (centres unmarked)", 1.465),
]

Ask: Name the recorded TR-FRET-IKZF2 (Normalized to CC-885) of O=C1CCC(N2C(=O)C=C(Nc3ccccc3)C2=O)C(=O)N1 (centres unmarked) , assay system CRBN and Helios (IKZF2) (Homo sapiens, UniProt Q96SW2+Q9UKS7).
Reply: 0.386

Ask: Write down measured TR-FRET-IKZF2 (Normalized to CC-885) (CRBN and Helios (IKZF2) (Homo sapiens, UniProt Q96SW2+Q9UKS7)) for this molecule. Cc1ccc(CC(=O)NCc2cccc(NC3=CC(=O)N(C4CCC(=O)NC4=O)C3=O)c2)cc1C (centres unmarked)
Reply: 1.082

Ask: Recall the reported TR-FRET-IKZF2 (Normalized to CC-885) of COC(=O)CNC1=CC(=O)N(C2CCC(=O)NC2=O)C1=O (centres unmarked) when tested on CRBN and Helios (IKZF2) (Homo sapiens, UniProt Q96SW2+Q9UKS7).
Reply: 0.032

* * *

# TARGET_SYSTEM: CRBN and Helios (IKZF2) (Homo sapiens, UniProt Q96SW2+Q9UKS7)
# Construct: His (N); Strep (N)
# ASSAY_NAME: TR-FRET dimerization assay (CRBN-IKZF2 ternary complex formation)
# Assay type: binding
# EXPERIMENTAL_PARAMETERS: compound concentration 6.6667E−05; n=1
QUANTITY_NAME: TR-FRET-IKZF2 (Normalized to CC-885)
Give the figure by itself; no unit, no explanation.

Solved entries:
# MOLECULE, QUANTITY_NAME, QUANTITATIVE_READOUT
measured = [
    ("Cc1ccc(NC2=CC(=O)N(C3CCC(=O)NC3=O)C2=O)cc1C#N (centres unmarked)", "TR-FRET-IKZF2 (Normalized to CC-885)", 0.376),
    ("O=C(O)CCCCNC1=CC(=O)N(C2CCC(=O)NC2=O)C1=O (centres unmarked)", "TR-FRET-IKZF2 (Normalized to CC-885)", 0.055),
    ("Cc1ccc(NC(=O)NCc2cccc(NC3=CC(=O)N(C4CCC(=O)NC4=O)C3=O)c2)cc1Cl (centres unmarked)", "TR-FRET-IKZF2 (Normalized to CC-885)", 1.223),
    ("Cc1ccc(NC(=O)NCc2ccccc2NC2=CC(=O)N(C3CCC(=O)NC3=O)C2=O)cc1Cl (centres unmarked)", "TR-FRET-IKZF2 (Normalized to CC-885)", 0.079),
    ("Cc1ccc(NC(=O)CCc2cccc(NC3=CC(=O)N(C4CCC(=O)NC4=O)C3=O)c2)cc1Cl (centres unmarked)", "TR-FRET-IKZF2 (Normalized to CC-885)", 1.708),
    ("Cc1ccc(CNC(=O)c2cccc(NC3=CC(=O)N(C4CCC(=O)NC4=O)C3=O)c2)cc1Cl (centres unmarked)", "TR-FRET-IKZF2 (Normalized to CC-885)", 0.715),
    ("CCOC(=O)CNC1=CC(=O)N(C2CCC(=O)NC2=O)C1=O (centres unmarked)", "TR-FRET-IKZF2 (Normalized to CC-885)", 0.032),
]

Query molecule follows.
Ask: Return TR-FRET-IKZF2 (Normalized to CC-885) for the following molecule: Cc1ccc(NC(=O)c2cccc(NC3=CC(=O)N(C4CCC(=O)NC4=O)C3=O)c2)cc1Cl (centres unmarked)
Reply: 0.801

* * *

# TARGET_SYSTEM: IKZF1 (Homo sapiens)
# Construct: expressed in transfected cells; host or cells: Flp-In 293
# Sequence (Q13422 83-213 isoform Q13422-7 limits assumed): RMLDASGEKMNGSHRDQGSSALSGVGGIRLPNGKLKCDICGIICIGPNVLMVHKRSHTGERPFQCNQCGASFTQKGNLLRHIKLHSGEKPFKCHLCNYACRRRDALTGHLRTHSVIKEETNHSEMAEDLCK
# Sequence (Q96SW2 whole entry partner): as the sequence (Q96SW2 whole entry) above
# Sequence (Q16531 2-1140 partner limits assumed): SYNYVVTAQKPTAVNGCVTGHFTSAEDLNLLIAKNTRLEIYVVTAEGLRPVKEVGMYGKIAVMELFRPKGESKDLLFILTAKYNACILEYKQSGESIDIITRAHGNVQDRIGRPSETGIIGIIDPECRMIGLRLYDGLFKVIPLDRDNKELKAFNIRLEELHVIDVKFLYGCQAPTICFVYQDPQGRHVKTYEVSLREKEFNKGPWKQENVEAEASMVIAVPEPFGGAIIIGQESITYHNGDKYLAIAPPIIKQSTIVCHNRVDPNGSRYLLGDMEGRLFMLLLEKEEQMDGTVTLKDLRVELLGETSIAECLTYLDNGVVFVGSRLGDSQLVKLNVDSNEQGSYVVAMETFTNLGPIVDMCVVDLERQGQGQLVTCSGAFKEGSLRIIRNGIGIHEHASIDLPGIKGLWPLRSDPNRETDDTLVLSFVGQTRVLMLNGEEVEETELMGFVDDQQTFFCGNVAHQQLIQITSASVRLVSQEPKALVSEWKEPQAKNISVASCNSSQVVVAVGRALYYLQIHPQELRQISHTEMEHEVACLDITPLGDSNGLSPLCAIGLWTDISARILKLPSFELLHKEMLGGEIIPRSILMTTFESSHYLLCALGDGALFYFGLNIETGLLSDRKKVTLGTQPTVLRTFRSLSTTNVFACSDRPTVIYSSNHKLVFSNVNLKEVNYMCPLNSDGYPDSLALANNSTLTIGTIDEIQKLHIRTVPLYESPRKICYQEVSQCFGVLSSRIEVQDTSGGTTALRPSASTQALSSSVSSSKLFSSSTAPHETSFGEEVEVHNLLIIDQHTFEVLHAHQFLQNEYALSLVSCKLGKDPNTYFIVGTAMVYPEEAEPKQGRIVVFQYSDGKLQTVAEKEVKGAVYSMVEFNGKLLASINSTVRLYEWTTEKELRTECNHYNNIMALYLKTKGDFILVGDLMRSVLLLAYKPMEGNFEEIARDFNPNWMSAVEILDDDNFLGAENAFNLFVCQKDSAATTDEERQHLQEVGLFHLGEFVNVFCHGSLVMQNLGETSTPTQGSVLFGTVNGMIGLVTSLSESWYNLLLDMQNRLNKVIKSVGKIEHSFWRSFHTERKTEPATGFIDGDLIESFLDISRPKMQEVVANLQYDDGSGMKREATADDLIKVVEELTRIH
# ASSAY_NAME: Cellular degradation assay, eGFP-IKZF1Δ fusion with mCherry reporter in Flp-In 293 cells
# Assay type: cell-based
# EXPERIMENTAL_PARAMETERS: compound concentration 2.00E−06; 5 h incubation; n=1
// NB: equality with 0.4 counts as FALSE; only IKZF1 GFP/RFP Relative Abundance strictly below is TRUE

// below: answered compounds
# COMPOUND, QUALITATIVE_LABEL
records = [
    ("Cc1ccc(NC(=O)NCc2ccc3c(c2)CN(C2CCC(=O)NC2=O)C3=O)cc1Cl (stereo not shown) [CC-885, reference compound]", "TRUE"),
    ("O=C1CCC(N2C(=O)C=C(Nc3cccc(Cl)c3)C2=O)C(=O)N1 (stereo not shown)", "TRUE"),
    ("Cc1ccc(CC(=O)NCc2cccc(NC3=CC(=O)N(C4CCC(=O)NC4=O)C3=O)c2)cc1C (stereo not shown)", "TRUE"),
    ("O=C1CCC(N2C(=O)C=C(Nc3ccc(Cl)cc3)C2=O)C(=O)N1 (stereo not shown)", "TRUE"),
    ("O=C1CCC(N2C(=O)C=C(Nc3cccc(-c4nnn[nH]4)c3)C2=O)C(=O)N1 (stereo not shown)", "FALSE"),
    ("Cc1ccc(NC(=O)/C=C/c2cccc(NC3=CC(=O)N(C4CCC(=O)NC4=O)C3=O)c2)cc1Cl (stereo not shown)", "TRUE"),
    ("Cc1ccc(NC(=O)NCc2cccc(NC3=CC(=O)N(C4CCC(=O)NC4=O)C3=O)c2)cc1Cl (stereo not shown)", "TRUE"),
    ("O=C1CCC(N2C(=O)C=C(Nc3ccc(-n4ccnc4)cc3)C2=O)C(=O)N1 (stereo not shown)", "FALSE"),
    ("Cc1ccc(NC2=CC(=O)N(C3CCC(=O)NC3=O)C2=O)cc1Cl (stereo not shown)", "TRUE"),
    ("Cc1ccc(N(C)C(=O)CCc2cccc(NC3=CC(=O)N(C4CCC(=O)NC4=O)C3=O)c2)cc1Cl (stereo not shown)", "TRUE"),
]

Ask: Hello, is IKZF1 GFP/RFP Relative Abundance of the following compound strictly smaller than 0.4? Cc1ccc(NC(=O)Nc2cccc3c(NC4=CC(=O)N(C5CCC(=O)NC5=O)C4=O)cccc23)cc1Cl (stereo not shown)
Reply: FALSE
